For each entry below, report its The decrease of the blood pressure (mmHg) induced by the dose of 0.5 µmol/rat p.o. 2h value.
tested on: Spontaneously hypertensive rats of the Okamoto-Aoki strain; assay: Blood pressure lowering after oral administration in conscious spontaneously hypertensive rats (tail cuff, systolic pressure); assay type: in vivo; conditions: 2 hours after administration
Structures can show the parent of a compound that is named as a salt.
Give bare numbers, in mmHg.

Some compounds with known The decrease of the blood pressure (mmHg) induced by the dose of 0.5 µmol/rat p.o. 2h results, for comparison:
{"columns": ["compound", "test-value"],
 "data": [
  ["COc1cc2nc(N3CCC(C(=O)N4CCCCCC4)CC3)nc(N)c2cc1OC [1-azacycloheptyl, hydrochloride]", 27],
  ["COc1cc2nc(N3CCC(C(N)=O)CC3)nc(N)c2cc1OC.Cl", 22],
  ["COc1cc2nc(N3CCC(C(=O)NC(C)(C)C)CC3)nc(N)c2cc1OC.Cl", 25],
  ["CCN(CC)C(=O)C1CCN(c2nc(N)c3cc(OC)c(OC)cc3n2)CC1 [A(R = diethylamino), reference compound]", 16],
  ["COc1cc2nc(N3CCC(C(=O)N4CCCCC4)CC3)nc(N)c2cc1OC", 22],
  ["COc1cc2nc(N3CCC(C(=O)N4CCOCC4)CC3)nc(N)c2cc1OC [B(R = morpholino), reference compound]", 5],
  ["COc1cc2nc(N3CCC(C(=O)OCC(C)(C)C)CC3)nc(N)c2cc1OC.Cl", 21],
  ["COc1cc2nc(N3CCC(C(=O)N4CCCCCCC4)CC3)nc(N)c2cc1OC [1-azacyclooctyl, hydrochloride]", 23],
  ["COc1cc2nc(N3CCN(C(=O)c4ccco4)CC3)nc(N)c2cc1OC [prazosin, reference compound]", 31]
]}

Input line: Entry COc1cc2nc(N3CCC(C(=O)N4CCCCC4C)CC3)nc(N)c2cc1OC.Cl (stereo not shown) has what The decrease of the blood pressure (mmHg) induced by the dose of 0.5 µmol/rat p.o. 2h?
Output line: 25

* * *

system: Spontaneously hypertensive rats of the Okamoto-Aoki strain; experiment: Blood pressure lowering after oral administration in conscious spontaneously hypertensive rats (tail cuff, systolic pressure); assay type: in vivo; details: 1 hour after administration
Where a name gives a salt, the structure may show the parent alone.
Cut-off 20 mmHg on The decrease of the blood pressure (mmHg) induced by the dose of 0.5 µmol/rat p.o. 1h: below means Yes, at or above means No.

{"columns": ["compound", "class-assignment"],
 "data": [
  ["COc1cc2nc(N3CCC(C(=O)N4CCCCCC4)CC3)nc(N)c2cc1OC [1-azacycloheptyl, hydrochloride]", "No"],
  ["COc1cc2nc(N3CCC(C(=O)N4CCCCC4C)CC3)nc(N)c2cc1OC.Cl (stereo not shown)", "Yes"],
  ["CCN(CC)C(=O)C1CCN(c2nc(N)c3cc(OC)c(OC)cc3n2)CC1 [A(R = diethylamino), reference compound]", "No"],
  ["COc1cc2nc(N3CCC(C(=O)NC(C)(C)C)CC3)nc(N)c2cc1OC.Cl", "Yes"],
  ["COc1cc2nc(N3CCC(C(=O)OCC(C)(C)C)CC3)nc(N)c2cc1OC.Cl", "No"],
  ["COc1cc2nc(N3CCC(C(=O)N4CCCCCCC4)CC3)nc(N)c2cc1OC [1-azacyclooctyl, hydrochloride]", "Yes"],
  ["COc1cc2nc(N3CCC(C(=O)N4CCOCC4)CC3)nc(N)c2cc1OC [B(R = morpholino), reference compound]", "Yes"],
  ["COc1cc2nc(N3CCN(C(=O)c4ccco4)CC3)nc(N)c2cc1OC [prazosin, reference compound]", "No"]
]}

Switching to the query record.
Input line: Decide: The decrease of the blood pressure (mmHg) induced by the dose of 0.5 µmol/rat p.o. 1h of COc1cc2nc(N3CCC(C(=O)N4CCCCC4)CC3)nc(N)c2cc1OC strictly below 20 mmHg?
Output line: No
